Assay: pH of the compounds
Format: physicochemical
Parameter Measured: pKa

Req: Indicate the recorded pKa value for this compound: CC(O)CC(=O)O (stereo not drawn) [BHB, β-hydroxybutyric acid]
Resp: ~4.4
